The measured values listed here are drawn from patent US11033596B2.

# Test system: RAW macrophages
# PROTOCOL TEXT: Cell-based NO2- scavenging activity (Griess assay, RAW macrophages)
# CONDITION SUMMARY: Table 2; each component added at the concentration present in 800 μg/mL OPP
Below, each entry is listed with its recorded Actual % inhibition of ROS.
MEASURED METRIC: Actual % inhibition of ROS (%)

ITEM SMILES | MEASURED METRIC | READOUT UNIT | RECORDED RESULT
O=C(/C=C/c1ccc(O)c(O)c1)O[C@@H]1[C@H](O)C=C(C(=O)O)C[C@H]1O | Actual % inhibition of ROS | % | 8.4
O=C(O)c1ccc(O)cc1 | Actual % inhibition of ROS | % | 11.4
O=C(/C=C/c1ccc(O)c(O)c1)O[C@@H]1CC(C(=O)O)=C[C@@H](O)[C@H]1O | Actual % inhibition of ROS | % | 8.8
O=C(/C=C/c1ccc(O)c(O)c1)O[C@@H]1C=C(C(=O)O)C[C@@H](O)[C@@H]1O | Actual % inhibition of ROS | % | 12.3
O=C(O)c1ccc(O)c(O)c1 | Actual % inhibition of ROS | % | 8.6
O=C(O)C1=C[C@@H](O)[C@@H](O)[C@H](O)C1 | Actual % inhibition of ROS | % | 3.4
